- method-summary: qHTS profiling for inhibitors of Plasmodium falciparum proliferation (AID 504749);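 further: 0% = DMSO vehicle and full inhibition = artemisinin control; nearly all actives have a fitted effect of over 60% in size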
- experimental-conditions: P. falciparum in erythrocytes, SYBR Green DNA, 72 h; at 28.7 µM (top of the series); parasite line B
Records with an inconclusive call do not appear. The source made the active and inactive calls. The call rests on the fitted dose curve; in most records, active means well fitted inhibition curve with a large enough effect; inconclusive means small, poorly fitted or top-dose-only effect; inactive means flat fitted curve, though single readings scatter.

- compound: "Cc1cnc(C(=O)O)c[n+]1[O-]"
  activity, negative = inhibition: "-8.14% (inactive)"
- compound: "O=C1NC(=O)C(c2ccccc2)(c2ccccc2)N1"
  activity, negative = inhibition: "-26.3% (inactive)"
- compound: "C[C@@H](O)[C@H]1C(=O)N2C(C(=O)O)=C(S[C@@H]3CN[C@H](C(=O)N(C)C)C3)[C@H](C)[C@H]12"
  activity, negative = inhibition: "13.7% (inactive)"
- compound: "CC(=O)N[C@@H](CS)C(=O)O"
  activity, negative = inhibition: "16.4% (inactive)"
- compound: "NCCS"
  activity, negative = inhibition: "7.21% (inactive)"
- compound: "Cc1cccc(C)c1OCC(C)N (stereo unspecified)"
  activity, negative = inhibition: "-7.13% (inactive)"
- compound: "CCCCCN(C)CCC(O)(P(=O)(O)O)P(=O)(O)O"
  activity, negative = inhibition: "15.2% (inactive)"
- compound: "CCN(CC)CCNC(=O)c1ccc(N)cc1"
  activity, negative = inhibition: "5.88% (inactive)"
- compound: "O=C1NCC2(CCN(CCc3ccccc3)CC2)O1"
  activity, negative = inhibition: "1.55% (inactive)"
- compound: "O=C(O)c1cc(-c2ccccc2)nc2ccccc12"
  activity, negative = inhibition: "7.48% (inactive)"
- compound: "CCN(CC)C(=O)c1ccc(O)c(OC)c1"
  activity, negative = inhibition: "-14.5% (inactive)"
- compound: "CC(=O)c1ccc(S(=O)(=O)NC(=O)NC2CCCCC2)cc1"
  activity, negative = inhibition: "7.49% (inactive)"
- compound: "O=C(NCCN1CCOCC1)c1ccc(Cl)cc1"
  activity, negative = inhibition: "3.61% (inactive)"
- compound: "CN(C)CCC(c1ccccc1)c1ccccn1 (stereo unspecified)"
  activity, negative = inhibition: "5.22% (inactive)"
- compound: "C[N+](C)(C)CCCCCC[N+](C)(C)C"
  activity, negative = inhibition: "5.66% (inactive)"
- compound: "O=C(O)c1c(Cl)c(Cl)c(Cl)c(Cl)c1-c1c2cc(I)c(=O)c(I)c-2oc2c(I)c(O)c(I)cc12"
  activity, negative = inhibition: "2.35% (inactive)"

* * *

- method-summary: Quantitative High-Throughput drug screen in 47 multiple myeloma cell lines against the NCATS MIPE library collection: XG6_PLB cell viability assay (AID 1919865); further: nearly all actives have a fitted effect of over 40% in size
- experimental-conditions: XG6 myeloma viability, CellTiter-Glo ATP luminescence, 48 h; series mostly up to 45.8 µM
Results filed as inconclusive are left out. Active and inactive are the calls of the source. Calls follow the shape of the dose curve; as a rule, active = well fitted cell-killing curve with a large enough effect; inconclusive = small, poorly fitted or top-dose-only effect, or effect the other way; inactive = no such curve, though single readings can be large or run the other way.
Outcome codes: active, inactive

- molecule: "CCCCCCCCCCCC1=C(O)C(=O)C=C(O)C1=O"
  category-label: "active"
- molecule: "Cc1ccc(C(=O)Nc2cccc(C(F)(F)F)c2)cc1Nc1nc(-c2cccnc2)nc2c1cnn2C"
  category-label: "active"
- molecule: "Cc1nc(N)sc1-c1ccnc(Nc2ccc(N3CCOCC3)cc2)n1"
  category-label: "active"
- molecule: "O=C(O)c1ccc(-c2cc3cccnc3c(-c3ccc4nonc4c3)n2)cc1"
  category-label: "active"
- molecule: "CC(C)C(C)C=CC(C)C1CCC2C3=CC=C4CC(O)CCC4(C)C3CCC21C (stereo not given)"
  category-label: "inactive"
- molecule: "O=c1cc(N2CCOCC2)oc2c(-c3cccc4c3sc3ccccc34)cccc12"
  category-label: "active"
- molecule: "C[C@]12CC[C@@H]3c4ccc(O)cc4C[C@@H](CCCCCCCCCS(=O)CCCC(F)(F)C(F)(F)F)[C@H]3[C@H]1CC[C@H]2O (stereo not given in full)"
  category-label: "active"
- molecule: "O=c1[nH]cnc2c1ncn2[C@H]1CC[C@@H](CO)O1"
  category-label: "inactive"
- molecule: "CC(C)(C)C(=O)Oc1ccc2c(c1)nc(NC(=O)c1cccc([N+](=O)[O-])c1)n2CCCO"
  category-label: "inactive"
- molecule: "COc1cc2ncnc(-n3nc(-c4ccccn4)nc3N)c2cc1OC"
  category-label: "active"
- molecule: "Oc1ccc(C2=Cc3ccc(O)cc3OC2)cc1"
  category-label: "active"
- molecule: "CC1(C)Cc2c(sc(NC(=S)NC(=O)c3ccccc3)c2C(=O)O)CO1"
  category-label: "active"
- molecule: "CC1(C)O[C@H]2C[C@@H]3[C@H]4CCC5=CC(=O)C=C[C@]5(C)[C@@]4(F)[C@@H](O)C[C@]3(C)[C@]2(C(=O)CO)O1"
  category-label: "inactive"
- molecule: "N#CC(=C(N)Sc1ccccc1N)C(C#N)=C(N)Sc1ccccc1N"
  category-label: "active"
- molecule: "Cn1c(N2CCCCS2(=O)=O)nc(C(=O)NCc2ccc(F)cc2)c(O)c1=O"
  category-label: "inactive"
- molecule: "Cc1ccc(C(C)(O)c2nc3ccccc3s2)c(C)c1 (stereo not given)"
  category-label: "inactive"
- molecule: "CN(C)Cc1cccc(N=C(c2ccccc2)c2c(O)[nH]c3cc(C(=O)N(C)C)ccc23)c1"
  category-label: "active"
- molecule: "CCn1cc(C(=O)O)c(=O)c2ccc(C)nc21"
  category-label: "inactive"
- molecule: "CN[C@@H](C)C(=O)N[C@H]1CN(C(=O)CC(C)C)CC[C@H]2CC[C@@H](C(=O)NC(c3ccccc3)c3ccccc3)N2C1=O"
  category-label: "active"
- molecule: "O=C(NCc1ccncc1)C12C[C@H]3C[C@@H](C1)CC(c1ccc(Cl)cc1)(C3)C2"
  category-label: "active"

* * *

- method-summary: qHTS drug screen for cell cycle checkpoint inhibitors in PARPi-resistant BRCA-mutant ovarian cancer cell lines. (AID 1963452)
- experimental-conditions: PEO1/OlaR viability, CellTiter-Glo luminescence, 96 h; measured here: PEO4 Z-AUC; stronger effect = lower value
Please assign Not satisfied whenever Z-AUC is at or above 0.4, and Satisfied whenever it is below.

- compound: "CC(C)(C)C(=O)Oc1ccc2c(c1)nc(NC(=O)c1cccc([N+](=O)[O-])c1)n2CCCO"
  category-label: "Satisfied"
- compound: "N#Cc1ccc(NC(=O)Nc2ccccc2Br)c2n[nH]nc12"
  category-label: "Not satisfied"
- compound: "COC(=O)[C@@H]1[C@H]2C[C@H]3c4[nH]c5ccccc5c4CCN3C[C@@H]2CC[C@@H]1O"
  category-label: "Not satisfied"
- compound: "CC1CCC(C(=O)N(c2cc(C#CC(C)(C)C)sc2C(=O)O)C2CCC(O)CC2)CC1 (stereo not given)"
  category-label: "Satisfied"
- compound: "O=C(O)c1c(Cl)c(Cl)c(Cl)c(Cl)c1-c1c2cc(I)c(=O)c(I)c-2oc2c(I)c(O)c(I)cc12"
  category-label: "Satisfied"
- compound: "O=c1cc(-c2ccc(O)cc2)oc2cc(O)cc(O)c12"
  category-label: "Not satisfied"
- compound: "CC(C)(C)NC(=O)Nc1cccc(Nc2ncc(F)c(NC(C)(C)CO)n2)c1"
  category-label: "Satisfied"
- compound: "COC1CCC(N(C(=O)C2CCC(C)CC2)c2cc(C3=CCCCC3)sc2C(=O)O)CC1 (stereo not given)"
  category-label: "Satisfied"
- compound: "Cc1ccccc1C(C(=O)NC1CCCCC1)N(C(=O)Cn1ccnc1C)c1cccc(F)c1 (stereo not given)"
  category-label: "Not satisfied"

* * *

- Tested on: HEK293
- method-summary: Cytotoxic Profiling of Annotated Libraries Using Quantitative High-Throughput Screening (AID 1296008); further: on the % scale 0 is the no-effect control and ±100 the full control effect; nearly all actives have a fitted effect of over 60% in size
- experimental-conditions: Five cell lines viability, CellTiter-Glo ATP luminescence, 48-72 h; stronger effect = lower value
Inconclusive results are not listed.
Attribute: max response

- molecule: "COc1cccc([C@@H](C)NCCCc2ccccc2Cl)c1"
  max response / %: 1.17
- molecule: "C=CCc1ccc(O)c(-c2ccc(O)c(CC=C)c2)c1"
  max response / %: -27.3
- molecule: "CCC(CC)[C@H](NC(C)=O)[C@@H]1[C@H](O)[C@@H](C(=O)O)C[C@@H]1N=C(N)N"
  max response / %: -9.34
- molecule: "COC1CCC(N(C(=O)C2CCC(C)CC2)c2cc(C3=CCCCC3)sc2C(=O)O)CC1 (stereo not given)"
  max response / %: -22.6
- molecule: "N#Cc1ccc(NC(=O)Nc2ccccc2Br)c2n[nH]nc12"
  max response / %: -11
- molecule: "Nc1nc(F)nc2c1ncn2[C@@H]1O[C@H](COP(=O)(O)O)[C@@H](O)[C@H]1O"
  max response / %: -8.85
- molecule: "c1cc(-c2sc(-c3ccncc3)c(-c3ccncc3)c2-c2ccncc2)ccn1"
  max response / %: -5.01
- molecule: "Clc1ccc(-c2nc3sccn3c2C=NOCc2ccc(Cl)c(Cl)c2)cc1"
  max response / %: -1.21
- molecule: "CCOC1OC(=O)C[C@H]1NC(=O)[C@@H]1CCCN1C(=O)[C@@H](NC(=O)c1ccc(N)c(Cl)c1)C(C)(C)C (stereo not given in full)"
  max response / %: -6.79
- molecule: "COc1ccc(Cc2ccc(NC(N)=O)cc2)cc1-c1cccc(Cl)c1"
  max response / %: -15.8
